The values you see were collected from patent US12187712B2.

Recorded CDMF75 IC15 values for a group of molecules are listed next.
Biological target: bovine cardiac myofibrils (Bos taurus, UniProt Q9BE39)
Construct: full-length cardiac myosin in the context of the native sarcomere, skinned myofibril assays were performed; from tissue; host or cells: bovine cardiac left ventricular tissue, detergent-skinned (Triton X-100) myofibrils
Sequence (Q9BE39 whole entry): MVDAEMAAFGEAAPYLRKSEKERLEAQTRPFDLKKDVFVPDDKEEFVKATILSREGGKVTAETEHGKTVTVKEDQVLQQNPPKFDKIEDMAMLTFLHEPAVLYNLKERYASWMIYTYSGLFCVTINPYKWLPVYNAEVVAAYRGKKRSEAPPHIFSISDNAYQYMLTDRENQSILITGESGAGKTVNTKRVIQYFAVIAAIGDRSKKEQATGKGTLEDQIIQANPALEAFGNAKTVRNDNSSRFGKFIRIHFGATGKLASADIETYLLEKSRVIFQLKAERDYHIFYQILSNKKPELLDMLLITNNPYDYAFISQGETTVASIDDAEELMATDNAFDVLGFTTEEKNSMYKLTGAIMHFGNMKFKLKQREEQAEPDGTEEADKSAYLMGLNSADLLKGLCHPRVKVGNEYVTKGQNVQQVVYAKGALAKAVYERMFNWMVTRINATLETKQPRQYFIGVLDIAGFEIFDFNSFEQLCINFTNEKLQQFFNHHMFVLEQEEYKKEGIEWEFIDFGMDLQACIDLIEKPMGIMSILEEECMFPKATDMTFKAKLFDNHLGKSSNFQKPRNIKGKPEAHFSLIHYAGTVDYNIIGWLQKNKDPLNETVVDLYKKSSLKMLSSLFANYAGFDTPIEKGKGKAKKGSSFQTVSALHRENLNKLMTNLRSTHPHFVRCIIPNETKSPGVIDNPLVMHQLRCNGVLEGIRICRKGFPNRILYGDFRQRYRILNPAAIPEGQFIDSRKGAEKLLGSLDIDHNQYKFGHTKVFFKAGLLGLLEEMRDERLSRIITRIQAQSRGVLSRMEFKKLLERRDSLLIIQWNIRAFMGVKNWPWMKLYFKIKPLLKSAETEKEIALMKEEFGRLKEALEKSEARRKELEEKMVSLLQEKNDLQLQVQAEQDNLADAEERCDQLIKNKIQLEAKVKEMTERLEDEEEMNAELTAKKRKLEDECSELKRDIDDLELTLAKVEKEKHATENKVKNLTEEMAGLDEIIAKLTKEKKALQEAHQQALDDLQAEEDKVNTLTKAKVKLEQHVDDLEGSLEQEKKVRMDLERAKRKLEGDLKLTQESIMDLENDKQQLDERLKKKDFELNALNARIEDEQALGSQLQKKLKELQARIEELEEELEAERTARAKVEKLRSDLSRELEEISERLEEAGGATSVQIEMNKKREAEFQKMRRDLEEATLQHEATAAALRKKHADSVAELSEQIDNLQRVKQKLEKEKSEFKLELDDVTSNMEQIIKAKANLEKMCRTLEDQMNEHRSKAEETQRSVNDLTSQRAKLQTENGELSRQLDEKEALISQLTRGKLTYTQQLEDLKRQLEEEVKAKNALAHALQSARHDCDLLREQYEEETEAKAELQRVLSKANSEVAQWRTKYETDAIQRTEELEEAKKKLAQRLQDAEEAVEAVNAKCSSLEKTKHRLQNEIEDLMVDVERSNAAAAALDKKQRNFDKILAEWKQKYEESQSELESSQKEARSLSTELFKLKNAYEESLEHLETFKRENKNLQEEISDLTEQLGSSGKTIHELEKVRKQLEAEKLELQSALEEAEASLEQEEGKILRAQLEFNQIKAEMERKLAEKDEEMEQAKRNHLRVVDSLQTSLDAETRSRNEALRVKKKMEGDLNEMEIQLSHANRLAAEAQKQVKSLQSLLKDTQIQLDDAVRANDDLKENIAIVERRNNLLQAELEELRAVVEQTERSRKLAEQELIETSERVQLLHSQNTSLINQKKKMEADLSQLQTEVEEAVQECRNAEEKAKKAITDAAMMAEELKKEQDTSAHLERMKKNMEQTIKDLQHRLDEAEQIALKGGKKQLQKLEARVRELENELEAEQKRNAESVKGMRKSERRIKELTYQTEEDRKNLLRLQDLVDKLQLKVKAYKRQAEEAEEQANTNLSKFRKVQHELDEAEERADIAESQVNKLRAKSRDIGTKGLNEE
Sequence (P85100 whole entry partner): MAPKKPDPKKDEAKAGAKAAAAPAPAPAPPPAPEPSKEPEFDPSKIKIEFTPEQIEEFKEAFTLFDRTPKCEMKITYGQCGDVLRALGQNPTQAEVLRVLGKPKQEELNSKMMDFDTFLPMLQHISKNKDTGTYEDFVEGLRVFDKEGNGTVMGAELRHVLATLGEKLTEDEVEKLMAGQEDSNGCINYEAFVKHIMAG
Sequence (Q3SZE5 whole entry partner): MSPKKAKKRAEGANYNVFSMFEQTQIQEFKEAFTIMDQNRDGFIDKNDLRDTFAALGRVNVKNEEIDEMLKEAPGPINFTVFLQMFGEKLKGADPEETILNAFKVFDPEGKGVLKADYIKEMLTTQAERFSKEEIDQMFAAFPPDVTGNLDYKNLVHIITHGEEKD
Assay: Skinned myofibril ATPase assay (PK/LDH-coupled), CDMF75
Assay type: biochemical
Conditions: inhibition of steady-state ATPase activity of bovine cardiac myofibrils at 75% Ca2+ activation (pCa75)
Description: To evaluate the effect of compounds on the ATPase activity of full-length cardiac myosin in the context of the native sarcomere, skinned myofibril assays were performed. […] Small molecule agents were assessed for their ability to inhibit the steady-state ATPase activity of bovine cardiac myofibrils using pyruvate kinase and lactate dehydrogenase (PK/LDH)-coupled enzyme system. This assay regenerates myosin-produced ADP into ATP by oxidizing NADH, producing an absorbance change at 340 nm. […]

COMPOUND STRUCTURE STRING | UNIT SYMBOL | CDMF75 IC15
Cc1nc(-c2ccc([C@@H](C)Nc3cnccn3)cc2)no1 | nM | 600
COc1cc(NCc2ccc(-c3cc(C)on3)cc2)ncn1 | nM | 300
FCc1nc(-c2ccc(CNc3cnccn3)cc2)no1 | nM | 1100
Cc1cc(-c2ccc(CNc3cnccn3)cc2)on1 | nM | 2100

----------
molecular target: bovine cardiac myofibrils (Bos taurus); construct: full-length cardiac myosin in the context of the native sarcomere, skinned myofibril assays were performed; from tissue; host or cells: bovine cardiac left ventricular tissue, detergent-skinned (Triton X-100) myofibrils; assay: Skinned myofibril ATPase assay (PK/LDH-coupled), CDMF75; format: biochemical; conditions: inhibition of steady-state ATPase activity of bovine cardiac myofibrils at 75% Ca2+ activation (pCa75)

MOLECULE | CDMF75 IC15 (nM)
Cc1nc(-c2ccc(CNc3cnc(C#N)cn3)cc2)no1 | 1300
Cc1nc(-c2ccc3c(c2)CCC3Nc2cnccn2)no1 (stereo not shown) | 400
Fc1cc(-c2noc(C(F)(F)F)n2)ccc1CNc1cnccn1 | 900
C[C@@H](Nc1cnccn1)c1ccc(-c2noc(C3CCC3)n2)cc1 | 300
C[C@@H](Nc1cnccn1)c1ccc(-c2noc(-c3ccsc3)n2)cc1 | 400
Cc1nc(-c2ccc(CNc3ccncn3)cc2)no1 | 3600
Cc1nc(-c2ccc(CNC(=O)c3ccnc(N)c3)cc2)no1 | 7700
Cc1nc(-c2ccc(CNc3ccc(C#N)cn3)cc2)no1 | 4600
c1cnc(NCc2ccc(-c3noc(C4CC4)n3)cc2)cn1 | 400
FC(F)(F)c1nc(-c2ccc(CNc3cnccn3)cc2)no1 | 800
Cc1nc(-c2ccc(CNC(=O)Nc3ccccc3)cc2)no1 | 1200
Cc1nc(-c2ccc(CNc3cc(Cl)ncn3)cc2)no1 | 300
Cc1cnc(-c2ccc(CNc3cnccn3)cc2)s1 | 4000
Cc1nc(-c2ccc(CNc3cnccn3)cc2F)no1 | 700
FC(F)c1nc(-c2ccc(CNc3cnccn3)cc2)no1 | 800
Cc1nc(-c2ccc(CNc3cnccn3)cc2)no1 | 800
Cc1cc(-c2nc(-c3ccc([C@@H](C)Nc4cnccn4)cc3)no2)on1 | 3000
Cc1nc(-c2ccc3c(c2)CCCC3Nc2cnccn2)no1 (stereo not shown) | 700
Cc1cnc(-c2ccc(CNc3cc(Cl)ncn3)cc2)o1 | 1200
